target: T1, human trkA receptor immunoadhesin (trkA extracellular domain fused to immunoglobulin constant domains) (human, UniProt P04629 33-423)
T1 construct: extracellular domain; not shown: immunoglobulin constant domains
T1 sequence (P04629 33-423): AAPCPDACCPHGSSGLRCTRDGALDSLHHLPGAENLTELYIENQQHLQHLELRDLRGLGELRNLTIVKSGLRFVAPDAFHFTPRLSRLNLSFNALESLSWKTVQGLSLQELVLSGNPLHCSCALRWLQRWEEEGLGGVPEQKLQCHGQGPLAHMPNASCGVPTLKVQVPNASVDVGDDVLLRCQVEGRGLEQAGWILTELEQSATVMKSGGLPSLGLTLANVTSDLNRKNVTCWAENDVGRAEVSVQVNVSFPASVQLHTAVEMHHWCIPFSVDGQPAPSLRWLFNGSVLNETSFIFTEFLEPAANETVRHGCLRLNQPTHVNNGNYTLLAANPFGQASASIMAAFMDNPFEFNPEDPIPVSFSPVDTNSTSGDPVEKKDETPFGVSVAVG
test-name: competitive displacement of labeled NGF from human trkA immunoadhesin, 96-well plate
Rule: IC50mut/IC50NGF below 1 ratio gives rule met, anything at or above gives rule not met.

>>> class_name("NGFR3 (ligand) SSSHPIFHRGEFSVCDSESVWVTDKTTATDIKGKEVMVLGEVNINNSVFKQYFFETKCRDPNPVDSGCRGIDSKHWNSYCKTTQTFVKALTMDGKQAAWRFIRIDTACVCVLSRKAVRRA")
"rule not met"
>>> class_name("NGF1234 (ligand) SSSHPIFHRGEFSVCDSESLWVTDKTTAIDIKGKEVMVLGEVNINNSVFKQYFFETKCRDPNPVDSGCRGIDSKHWNSQCKTTQTYVKALTMDGKQAAWRFIRIDTACVCVLSRKAVRRA")
"rule not met"
>>> class_name("NGF131 (ligand, also called NGF31) SSSHPIFHRGEFSVCDSVSLWVTDKTTAIDIKGKEVMVLGEVNINNSVFKQYFFETKCRDPNPVDSGCRGIDSKHWNSYCTTTQTYVKALTMDGKQAAWRFIRIDTACVCVLSRKAVRRA")
"rule not met"
>>> class_name("NGFR2 (ligand) SSSHPIFHRGEFSVCDSVSLWVTDKTTATDIKGKEVMVLGEVNINNSVFKQYFFETKCRDPNPVDSGCRGIDSKHWNSYCKTTQTFVKALTMDGKQAAWRFIRIDTACVCVLSRKAVRRA")
"rule met"
